Record form. Attribute: kon. Fill in for each entry.
Target Under Test: HSV-1 glycoprotein D-Fc fusion protein (HSV-1) (UniProt Q69091)
Assay Notes: SPR Biacore T200, single cycle kinetics, G-Fc captured on anti-human IgG, 1:1 fit
Write down the numeric answer in M⁻¹ s⁻¹ and omit the unit.

Query: Could you share which kon value was measured for 3-G-75_M13R (VHH, not shown: small tags and cut ends) VHH: QVKLEESGGGVVQDGGSLRLSCAAIEQFFTTNAMAWFRQAPGKERELVAATDWSGQSTSYADSVKGRFTISRDTAKNVMYLQMNILHTEDTAVYYCARAPGRVLLTSDLESYTIWGQGTQVTVSS ?
Response: 3.47e+06

Query: Another binder to check: 3-G-77_M13R (VHH, not shown: small tags and cut ends) VHH: QVQLVESGGGLVQPGGSLRLSCSASGFSFAFKNYAMSWVRQAPGKGLEWVSTMSGGGGDTKYADSVKGRFTISRDNNKNTVYLQMNSLKPEDTAVYYCAKGWITNNQFAFAPRGQGTQVTVSS
Response: 5.07e+06

Query: Another binder to check: 3-G-44_M13R (VHH, not shown: small tags and cut ends) VHH: QVQLVESGGGLVQPGGSLRLSCTASGFSFAFKNYAMSWVRQAPGKGLEWVSTMSGGGGDTKYADSVKGRFTISRDNAKNAVYLQMNSLKPEDTAVYYCAKGWITTDQFATAPRGQGTQVTVSS
Response: 5.47e+06

Query: Another binder to check: 3-G-41_M13R (VHH, not shown: small tags and cut ends) VHH: QVQLVESGGGLVQPGGSLRLSCAASGFSFSFKNYAMSWVRQAPGKGLEWVSTMSGGGGDIKYADSVKGRFTISRDNAKNTLYLQMNSLKPEDTAVYYCAKGWITTDQFTNTPRGQGTQVTVSS
Response: 2.85e+06
